Each recorded value in this set is attributed to the nanobody polyreactivity screen of Harvey et al. (2022).

# method: yeast display, Sf9 membrane polyspecificity reagent, FACS + sequencing; frameworks hold sequencing errors
measured endpoint: polyreactivity (PSR sort gate)

INSERT INTO results (polymer_sequence, measured_endpoint, meas_value) VALUES
  ('QVHLVESGGGLVQAGGSLRLSCAASGYTDYAMGWYRKAPGKERELVATITSGDNTNYADSVKGRFTSSRDNAKNTVYLQMNSLKAEDTAVYYCAAVYGLHYGIDYWGQGTQVNVSS', 'polyreactivity (PSR sort gate)', 'low polyreactivity'),
  ('QVQLVESGGGLVQARGSLRLSCAASVSTFGGNAMGWYRQAPGKERQLVAAISCIGGGTYYADSVKGRFTISRDNAKNTVYLQMKSLKPEYTAVYYCAAKIFIRVHYYSYRMYYWGQGTQLTVSS', 'polyreactivity (PSR sort gate)', 'low polyreactivity'),
  ('QVQLVESGGGLVQAGGSLRLSCAASGFIFDKNAMGWYRQAPGKERELVAAITSSGGSTYADSVKGRFTISRDNAKNTVYLQMNSLKPEDTAVYYCAARWYRPWYVTDSGDDYWGQGTQVTVSS', 'polyreactivity (PSR sort gate)', 'low polyreactivity');

* * *

# method: yeast display, Sf9 membrane polyspecificity reagent, FACS + sequencing; frameworks hold sequencing errors
measured endpoint: polyreactivity (PSR sort gate)

INSERT INTO measurements (polymer_sequence, meas_value) VALUES
  ('QVQLVESGGGLVQAGGSLRLSCAASGIIFSTNAMGWYRQAPGKERELVAAISWDGSSTYYADSVKGRFTISRDNAKNTVYLQMNSLKPEDTAVYYCAADQSTVLDVGSWGQGTQVTVSS', 'low polyreactivity'),
  ('QVQLVESGGGLVQAGGSLRLSCAASGSIFVSYAMGWYRQAPGKERELVAAITRGGSTNYADSVKGRFTISRDNAKNTVYLQMNSLKPEDTAVYYCAAAYRRGGPPLDYWGQGTQVTVSS', 'low polyreactivity');

* * *

# method: yeast display, Sf9 membrane polyspecificity reagent, FACS + sequencing; frameworks hold sequencing errors
measured endpoint: polyreactivity (PSR sort gate)

Known results for sequences:
INSERT INTO assay_data (polymer_sequence, meas_value) VALUES
  ('QVQLVESGGGIVQAGGSLRLSCAASGRTFYYNAMGWYRQAPGKERELVAAISSSGGSTYYADSVKGRFTISRDNAKNTVYLQMNSLKPEDTAGYYCAASSPGARGGGGYWGQGTQVTVSS', 'high polyreactivity'),
  ('QVQLVESGGGLVQAGGSLRLSCSASGSILVRYAMGWYRQSPGKERELVAAITSGGSTYADSVKGRFTISRDNAKNTVYLQMNSLKPEDTAVYYCARDYFNREAFDYWGQGTQVTVSS', 'low polyreactivity'),
  ('QVQHVDSGAGLVQAGGSLRLRCSASGLILKDYAMGWSIQPPGKERELVAAISTSAGTTYYADSVKGRFTISRDNAKNTVYLQMKSQKPEETAVYYCAAGYLPYYIRYYHPVTVDYDYWGQGTQVTVSS', 'low polyreactivity'),
  ('QVQLVESGGGLVQAGGSLRLSCAASGSTLPGNTMGWYRQAPGKERELVAAISKSGGTTYYADSVKGRFTISRDYAKNTVYLQMNSLKPEDTAVYYCAAKPWVWVYARYGKHPSYDYWGQGTQVTVSS', 'high polyreactivity');

I have this sequence here, QVQLVESGGGLVQAGGSLRLSCAASGITFGDYAMVWYRQAPGKERELVAAITSGGSTYYADSVKGRCTISRDNAKNTVYLQMNILKPEDTAVYYCNRQYNQWIHYYYRMDYWGQGTQVTVSS , and I need its recorded polyreactivity (PSR sort gate). high polyreactivity

* * *

# method: yeast display, Sf9 membrane polyspecificity reagent, FACS + sequencing; frameworks hold sequencing errors
measured endpoint: polyreactivity (PSR sort gate)

INSERT INTO assay_data (polymer_sequence, meas_value) VALUES
  ('QVQLVESGGGLVQAGGSLRLSCAASGRTFEGNAMGWDRQAPGKERELVAALTYPGGDTHYADSVKGRCTISRDNPKNTVYLQMTSLKPEDTAGYYCAADWGWPHTDSMDYWGQGTQVTVSS', 'low polyreactivity'),
  ('QVQLVESGGGLVQAGGSLRLSCAASGSTFRSYAMGWYRQAPGKERELVAAISVSGGSTYYADSVKGRFTISRDNAKNTVYLQMNSLKPEDTAVYYCAASYVPSYAPGRYYYWGQGTQVTVSS', 'high polyreactivity'),
  ('QVQLVESGGGLVQAGGSLRLSCAASGRIFPWYTMGWYRQAPGKERELVAAITSGGNTDYADSVKGRFTISRDNAKNSVYLQMNSLKPEETAVYYCAAGGYPGTTYYGYDYWGQGTQVTVSS', 'low polyreactivity'),
  ('QVQLVESGGGLVQAGGSLRLSCAASGSTFRRNTMGWYTQAPGKERELVAGISSSGGSTYYADSVKGRFTISRDNAKNTVYLQMNSLNPEDTAVYYCDARFYVSYVGYNYWGHGTQVTVSS', 'high polyreactivity');

Attention now turns to another entry.
I have this sequence here, QVQLVESGGGLVQAGGSLRLSCAASGCTFSIYAMGWYRQAPGKERELVAAFTGTVGSTYYADSVKVRFTISRDNAKNTVYLQMKSLKPEDTAVYYCNVDWFWNWRGYYWGQGTQVTVSS , and I need its recorded polyreactivity (PSR sort gate). low polyreactivity

* * *

# method: yeast display, Sf9 membrane polyspecificity reagent, FACS + sequencing; frameworks hold sequencing errors
measured endpoint: polyreactivity (PSR sort gate)

Known results for sequences:
INSERT INTO assay_data (polymer_sequence, measured_endpoint, meas_value) VALUES
  ('QVQLVESGGGLVQAGGSLRLSCAASGRSFRDYGMGWYRQAPGKERELVAVITWGGGSTYYADSVKGRFTISRDNAKNTVYLQMNSLKPEDTAVYYCAKEYHYYYWGQGTQVTVSS', 'polyreactivity (PSR sort gate)', 'low polyreactivity'),
  ('QVQLVESGGGLVQAGGSLRLSCAASGSTFGYYAMGWYRQAPGKERELVAVITSGGSTYYADSVKGRFTISRDNAKNTVFLQMNSLKPEDTAVYYCYARVQAVHYGYWGQGTQVTVSS', 'polyreactivity (PSR sort gate)', 'high polyreactivity'),
  ('QVQLVESGGGLVQAGGSLRLSCAASGSIFPPYAMGWYRQAPGKERELVASISNSGGSTYYADSVKGRFTISRDNAKNTVYLQMNSLKPEDTAVYYCAAYAVVSPSFTYGYWGQGTQVTVSS', 'polyreactivity (PSR sort gate)', 'high polyreactivity'),
  ('QVQLVESGGGLVQAGGSLRLSCAASGSIFRSYAMGWYRQAPGKERELVAAISWRGGRTYYADSVKGRFTISRDNAKNTVYLQMNSLKPEDTAVYYCAVDFYVYRWSPYGDVYRYDYWGQGTQVTVSS', 'polyreactivity (PSR sort gate)', 'high polyreactivity');

Attention now turns to another entry.
I have this sequence here, QVQLGESGGGLVQAGGSLRLSCAASGSTFVGSAMGWYIQAPGKDRELVAAISYSGGSTYYADSVKGRFTISRDNAKNTVYLQMNSLKPEDTAVYYCAAEWSRHYYYGPRYHYWGQGTQVTVSS , and I need its recorded polyreactivity (PSR sort gate). low polyreactivity

* * *

# method: yeast display, Sf9 membrane polyspecificity reagent, FACS + sequencing; frameworks hold sequencing errors
measured endpoint: polyreactivity (PSR sort gate)

INSERT INTO measurements (polymer_sequence, meas_value) VALUES
  ('QVQLVESGGGLVQAGGSLRLSCAASGRTLQYNAMGWYRQAPGKEMELVAAISSSGGSTYYADSVKGRFTISRDNAKNTVYLQMNSLKPEDTALYYCNAYSQSWNFYGDGDYWGQGTLVTVSS', 'low polyreactivity'),
  ('QVQLVESGGGLVQAGGSLRLSCAASGRIFSSYDMGWYRQAPGKERELVAAISYSGGNTYYADSVKGRFTISRDTAKNTVYLQMNSLKPEDTAVYYCAARLPGYRYYYWGQGTQVTVSS', 'high polyreactivity'),
  ('QVQLVESGGGLVQAGGSLRLSCAASGLIFYRYAMGWYRQAPGKERELVAAITASGGTTYYADSVKGRFTISRDNAKNTVYLQMNSLKPEDTAVYDCASPYTYWRRIGVDYDYWGQGTQVTVSS', 'high polyreactivity'),
  ('QVQLVESGGGLVQAGGSLRLSCAASGFTFWSYAMGWYRQAPGKERELVAAISSSGDSTYYADSVKGRFTISRDNAKNTVYLQMNSLKPEDTAVYYCAAGTHTDYGRYYYWGQGTQVTVSS', 'low polyreactivity');

I have this sequence here, QVQLVESGGGLVQAGGSLRLSCAASGFIFSGYAMGWYRQAPGKEREFVAAISWSGSSTYYADSVKGRFTISRDNAKNTVYLQMNSLKPEDTALYYCNAVRQHPPRYSRYDYWGQGTQVTVSS , and I need its recorded polyreactivity (PSR sort gate). high polyreactivity

* * *

# method: yeast display, Sf9 membrane polyspecificity reagent, FACS + sequencing; frameworks hold sequencing errors
measured endpoint: polyreactivity (PSR sort gate)

INSERT INTO results (polymer_sequence, meas_value) VALUES
  ('QVQLVESGGGLVQAGGSLRLSCAASGSILPVNAMGWYRQAPGKERELVAAITSSGSTTYADSVKGRFTISRDNAKNTVYLQMNSLKEEDTAVYYCAADVYWSYYLYYIYKGGYWGQGTQVTVSS', 'low polyreactivity'),
  ('QVQLVVSGGRLVQGAGSHRLSSAASGSIFPKYAMGWYRQAPGKERDLVATISYRGGRTYYADSVKGRFTISRDNAKNTVNLQMNCLKPEDTAVYYCNAHSQAKLDYWGQGSQVTVSS', 'low polyreactivity');
